FYI, the data here is from ChEMBL document CHEMBL4342426.

Tested on: Trypanosoma brucei rhodesiense
assay-name: microbe, parasite or virus in culture
condition-summary: STIB900, 72 h
Description: Antiprotozoal activity against Trypanosoma brucei rhodesiense STIB900 trypomastigotes incubated for 72 hrs by resazurin dye based fluorimetric analysis
experimental-endpoint: IC90 (µM)

{"compound": "CC(C)(C)OC(=O)N1CCCC(O)(c2cc3ncccc3[nH]2)C1 (configuration not stated)", "subject-of-test": "Trypanosoma brucei rhodesiense", "display-unit": "µM", "IC90": 64}

A. CN(CCc1cc2ncccc2[nH]1)C(=O)c1ccccc1
B. O=C(c1cc(C(F)(F)F)no1)N1CCCC(c2cc3nc(NCc4ccccc4)ccc3[nH]2)C1 (configuration not stated)
Lookup: When the recorded IC90 values are compared, which is smaller: that of A or that of B ? Identify your selection by its label.
Found: B
(B: 13 µM, A: 64 µM)

1. O=C(c1cc(C(F)(F)F)no1)N1CCCC(c2cc3ncccc3[nH]2)C1 (configuration not stated)
2. O=C(Nc1cccc(-c2cc3ncccc3[nH]2)c1)c1ccccc1
Lookup: When the recorded IC90 values are compared, which is smaller: that of 1 or that of 2 ? Identify your selection by its label.
Found: 2

A. CCC(=O)N1CCCC(c2nc3ncc(Cl)cc3[nH]2)C1 (configuration not stated)
B. O=C(c1ccc(F)cc1)N1CCCC(c2cc3nc(N4CCCC4)ccc3[nH]2)C1 (configuration not stated)
Lookup: When the recorded IC90 values are compared, which is smaller: that of A or that of B ? Identify your selection by its label.
Found: B
(B: 14.1 µM, A: 64 µM)
